- TEST_PROTOCOL: Selectivity index, ratio of IC50 for cytotoxicity against human HK-2 cells to MIC for antibacterial activity against Escherichia coli ATCC BAA-2523
- Type: toxicity, cell-based
# selectivity ratio values compiled below
Simply state the number, no unit and no words.

Consider the following illustrative entries.
{"COMPOUND_STRUCTURE_STRING": "CCCCCCC[C@@H](O)CC(=O)N[C@H](CCN)C(=O)N[C@H]1CCNC(=O)[C@H](CC(C)C)NC(=O)[C@H](CCN)NC(=O)[C@H](CCN)NC(=O)[C@H](CC(C)C)NC(=O)[C@@H](CC(C)C)NC(=O)[C@H](CCN)NC1=O", "selectivity ratio": 3.8}
{"COMPOUND_STRUCTURE_STRING": "CCCCCCCCCC(=O)N[C@H](CCN)C(=O)N[C@H]1CCNC(=O)[C@H]([C@@H](C)O)NC(=O)[C@H](CCN)NC(=O)[C@H](CCN)NC(=O)[C@H](CC(C)C)NC(=O)[C@@H](Cc2ccc(C)cc2)NC(=O)[C@H](CCN)NC1=O", "selectivity ratio": 71.6}
{"COMPOUND_STRUCTURE_STRING": "CCCCCCC[C@@H](O)CC(=O)N[C@@H](CCN)C(=O)N[C@H](CCN)C(=O)N[C@H]1CCNC(=O)[C@H](CC(C)C)NC(=O)[C@H](CCN)NC(=O)[C@H](CCN)NC(=O)[C@H](Cc2ccccc2)NC(=O)[C@@H](CC(C)C)NC(=O)[C@H](CCN)NC1=O", "selectivity ratio": 2.3}
{"COMPOUND_STRUCTURE_STRING": "CCCCCCCCCC(=O)N[C@H](CCN)C(=O)N[C@H]1CCNC(=O)[C@H]([C@@H](C)O)NC(=O)[C@H](CCN)NC(=O)[C@H](CCN)NC(=O)[C@H](CC(C)C)NC(=O)[C@@H](Cc2ccc(C(C)(C)C)cc2)NC(=O)[C@H](CCN)NC1=O", "selectivity ratio": 15.9}
{"COMPOUND_STRUCTURE_STRING": "CCCCCCCCCC(=O)N[C@H](CCN)C(=O)N[C@H]1CCNC(=O)[C@H]([C@@H](C)O)NC(=O)[C@H](CCN)NC(=O)[C@H](CCN)NC(=O)[C@H](CC(C)C)NC(=O)[C@@H](Cc2ccccc2Cl)NC(=O)[C@H](CCN)NC1=O", "selectivity ratio": 27.3}

selectivity ratio for `CCCCCCCCCC(=O)N[C@H](CCN)C(=O)N[C@H]1CCNC(=O)[C@H]([C@@H](C)O)NC(=O)[C@H](CCN)NC(=O)[C@H](CCN)NC(=O)[C@H](CC(C)C)NC(=O)[C@@H](Cc2ccc(N)cc2)NC(=O)[C@H](CCN)NC1=O` is 3.6

// `CCCCCCCCCC(=O)N[C@H](CCN)C(=O)N[C@H]1CCNC(=O)[C@H](CC(C)C)NC(=O)[C@H](CCN)NC(=O)[C@H](CCN)NC(=O)[C@H](Cc2ccccc2)NC(=O)[C@@H](Cc2ccccc2)NC(=O)[C@H](CCN)NC1=O` : selectivity ratio value = 4

The recorded selectivity ratio for entry `CCCCCCC[C@@H](O)CC(=O)N[C@H](CCN)C(=O)N[C@H]1CCNC(=O)[C@H](CC(C)C)NC(=O)[C@H](CCN)NC(=O)[C@H](CCN)NC(=O)[C@H](Cc2ccccc2)NC(=O)[C@@H](CC(C)C)NC(=O)[C@H](CCN)NC1=O` equals 2

----------
- System: Pseudomonas aeruginosa
- TEST_PROTOCOL: Antibacterial activity against carbapenem resistant Pseudomonas aeruginosa clinical isolate 17-1 assessed as inhibition of bacterial growth incubated for 18 to 24 hrs by broth microdilution method
- Format: functional
- PROTOCOL_CONDITIONS: time 18-24 hrs
Bridge positions count the residues as written; N and C are the ends. Square brackets hold non-standard residues; d marks the D form. Peptide text beside a SMILES is read from it. * marks the point of attachment. Decanoyl(3R-OH) = CCCCCCC[C@@H](O)CC(=O)*; dDab = NCC[C@@H](N)C(=O)O; Dab = NCC[C@H](N)C(=O)O
Reported MIC values for a set of compounds
Your answer is read as µg/mL, so omit the unit and give the number.

{"COMPOUND": "CCCCCCCCCC(=O)N[C@H](CCN)C(=O)N[C@H]1CCNC(=O)[C@H]([C@@H](C)O)NC(=O)[C@H](CCN)NC(=O)[C@H](CCN)NC(=O)[C@H](CC(C)C)NC(=O)[C@@H](Cc2ccc(Cl)cc2)NC(=O)[C@H](CCN)NC1=O", "ENDPOINT_VALUE": 1}

Record CCCCCCC[C@@H](O)CC(=O)N[C@H](CCN)C(=O)N[C@H]1CCNC(=O)[C@H]([C@@H](C)O)NC(=O)[C@H](CCN)NC(=O)[C@H](CCN)NC(=O)[C@H](CC(C)C)NC(=O)[C@@H](Cc2ccccc2)NC(=O)[C@H](CCN)NC1=O ({Decanoyl(3R-OH)}-[dDab][Dab][Dab][dF]L[Dab][Dab]T; lactam 2-C) . Reported MIC: 0.5

Form field MIC, entry `CC(C)C[C@@H]1NC(=O)[C@@H](CC(C)C)NC(=O)[C@H](CCN)NC(=O)[C@@H](NC(=O)[C@@H](CCN)NC(=O)CCCCCC(C)(C)C)CCNC(=O)[C@H]([C@@H](C)O)NC(=O)[C@H](CCN)NC(=O)[C@H](CCN)NC1=O` : 8

----------
- Test system: Pseudomonas aeruginosa
- TEST_PROTOCOL: Antibacterial activity against carbapenem resistant Pseudomonas aeruginosa clinical isolate 17-1 assessed as inhibition of bacterial growth incubated for 18 to 24 hrs by broth microdilution method
- Assay type: functional
- PROTOCOL_CONDITIONS: time 18-24 hrs
MEASUREMENT_KIND: log10(MIC) (log10 of the value in µg/mL)
Please note: log10 values; quantity MIC; unit µg/mL.

{"COMPOUND_STRUCTURE_STRING": "CCCCCCCCCC(=O)N[C@H](CCN)C(=O)N[C@H]1CCNC(=O)[C@H](CC(C)C)NC(=O)[C@H](CCN)NC(=O)[C@H](CCN)NC(=O)[C@H](CC(C)C)NC(=O)[C@@H](CC(C)C)NC(=O)[C@H](CCN)NC1=O", "log10(MIC)": 0.30}

According to the records, this compound `CCCCCCC[C@H](O)CC(=O)N[C@H](CCN)C(=O)N[C@H]1CCNC(=O)[C@H](CC(C)C)NC(=O)[C@H](CCN)NC(=O)[C@H](CCN)NC(=O)[C@H](CC(C)C)NC(=O)[C@@H](CC(C)C)NC(=O)[C@H](CCN)NC1=O` displays log10(MIC) of 0.30

The compound identified as `CCCCCCCCCC(=O)N[C@H](CCN)C(=O)N[C@H]1CCNC(=O)[C@H]([C@@H](C)O)NC(=O)[C@H](CCN)NC(=O)[C@H](CCN)NC(=O)[C@H](CCCCCCCC)NC(=O)[C@@H](CC(C)C)NC(=O)[C@H](CCN)NC1=O` registered its log10(MIC) at 0.60

In plain terms, `CCCCCCCCCC(=O)N[C@@H](C(=O)N[C@H]1CCNC(=O)[C@H]([C@@H](C)O)NC(=O)[C@H](CCN)NC(=O)[C@H](CCN)NC(=O)[C@H](CC(C)C)NC(=O)[C@@H](CC(C)C)NC(=O)[C@H](CCN)NC1=O)[C@H](C)O` has a documented log10(MIC) of 1.51

// recorded log10(MIC) for `CCCCCCCCCC(=O)N[C@H](CCN)C(=O)N[C@H]1CCNC(=O)[C@H]([C@@H](C)O)NC(=O)[C@H](CCN)NC(=O)[C@H](CCN)NC(=O)[C@H](CC(C)C)NC(=O)[C@@H](Cc2ccc(C)cc2)NC(=O)[C@H](CCN)NC1=O` : 1.51

Summary for this compound, `CC[C@H](C)CCCCC(=O)N[C@H](CCN)C(=O)N[C@H]1CCNC(=O)[C@H](CC(C)C)NC(=O)[C@H](CCN)NC(=O)[C@H](CCN)NC(=O)[C@H](CC(C)C)NC(=O)[C@@H](CC(C)C)NC(=O)[C@H](CCN)NC1=O` : log10(MIC) is 0.00

----------
Reported MIC values for the following compounds.
- Test system: Pseudomonas aeruginosa
- TEST_PROTOCOL: Antibacterial activity against carbapenem resistant Pseudomonas aeruginosa clinical isolate 19-3 assessed as inhibition of bacterial growth incubated for 18 to 24 hrs by broth microdilution method
- Assay type: functional
- PROTOCOL_CONDITIONS: time 18-24 hrs
Lab book: enter the figure in µg/mL, no units written.

Past entries and their recorded results:
{"COMPOUND_STRUCTURE_STRING": "CCCCCCC[C@@H](O)CC(=O)N[C@H](CCN)C(=O)N[C@H]1CCNC(=O)[C@H](CC(C)C)NC(=O)[C@H](CCN)NC(=O)[C@H](CCN)NC(=O)[C@H](Cc2ccccc2)NC(=O)[C@@H](CC(C)C)NC(=O)[C@H](CCN)NC1=O", "VALUE_UNITS": "µg/mL", "MIC": 4}
{"COMPOUND_STRUCTURE_STRING": "CCCCCCCCCC(=O)N[C@H](CCN)C(=O)N[C@H]1CCNC(=O)[C@H]([C@@H](C)O)NC(=O)[C@H](CCN)NC(=O)[C@H](CCN)NC(=O)[C@H](CC(C)C)NC(=O)[C@@H](Cc2ccc(Cl)c(Cl)c2)NC(=O)[C@H](CCN)NC1=O", "VALUE_UNITS": "µg/mL", "MIC": 4}

Please examine the following record next.
MIC reported for this compound `CC[C@H](C)CCCCC(=O)N[C@H](CCN)C(=O)N[C@H]1CCNC(=O)[C@H](CC(C)C)NC(=O)[C@H](CCN)NC(=O)[C@H](CCN)NC(=O)[C@H](CC(C)C)NC(=O)[C@@H](CC(C)C)NC(=O)[C@H](CCN)NC1=O` : 2

Where do the numbers come from? From ChEMBL document CHEMBL5380795.
